Biological target: p38α (Homo sapiens, UniProt Q16539)
Sequence (Q16539 whole entry): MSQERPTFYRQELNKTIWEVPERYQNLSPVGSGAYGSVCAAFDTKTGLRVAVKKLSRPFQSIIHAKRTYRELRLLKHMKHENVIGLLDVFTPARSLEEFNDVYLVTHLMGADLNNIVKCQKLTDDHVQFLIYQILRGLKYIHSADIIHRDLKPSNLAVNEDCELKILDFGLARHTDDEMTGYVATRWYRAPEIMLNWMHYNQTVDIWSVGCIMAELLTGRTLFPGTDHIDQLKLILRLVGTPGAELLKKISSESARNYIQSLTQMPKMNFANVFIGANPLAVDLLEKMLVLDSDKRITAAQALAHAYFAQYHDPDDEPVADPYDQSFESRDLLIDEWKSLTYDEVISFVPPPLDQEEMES
quantity-kind: IC50

[in] Please look up its IC50: CCN1CCOc2nc(N3CCOCC3)nc(-c3ccc(NC(=O)OC)cc3)c2C1=O
[out] > 30 µM

====

Biological target: UniProt:O15264
Sequence (O15264 whole entry): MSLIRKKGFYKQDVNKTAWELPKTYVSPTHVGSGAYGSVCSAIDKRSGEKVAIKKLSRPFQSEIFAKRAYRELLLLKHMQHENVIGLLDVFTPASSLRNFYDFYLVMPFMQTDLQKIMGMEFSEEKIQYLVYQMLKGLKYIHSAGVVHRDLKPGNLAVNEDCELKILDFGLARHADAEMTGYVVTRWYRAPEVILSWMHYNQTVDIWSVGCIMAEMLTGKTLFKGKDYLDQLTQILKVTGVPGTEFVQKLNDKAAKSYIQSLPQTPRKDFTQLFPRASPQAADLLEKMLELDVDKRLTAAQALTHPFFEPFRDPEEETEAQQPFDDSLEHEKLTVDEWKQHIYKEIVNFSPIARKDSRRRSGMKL
quantity-kind: IC50 (nM)
Write down the numeric answer in nM and omit the unit.

[in] Please look up its IC50: CCN1CCOc2nc(N3CCOCC3)nc(-c3ccc(NC(=O)OC)cc3)c2C1=O
[out] 380

====

Target chain: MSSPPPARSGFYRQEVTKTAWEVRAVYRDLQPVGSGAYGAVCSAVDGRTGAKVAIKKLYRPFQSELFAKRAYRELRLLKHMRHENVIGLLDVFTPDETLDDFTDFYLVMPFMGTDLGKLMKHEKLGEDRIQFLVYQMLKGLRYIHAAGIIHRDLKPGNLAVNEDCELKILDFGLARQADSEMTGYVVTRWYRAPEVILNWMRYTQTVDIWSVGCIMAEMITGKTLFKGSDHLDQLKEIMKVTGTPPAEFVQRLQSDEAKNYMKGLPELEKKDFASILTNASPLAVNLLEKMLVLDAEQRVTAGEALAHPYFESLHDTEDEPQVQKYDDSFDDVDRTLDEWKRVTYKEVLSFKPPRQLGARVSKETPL
quantity-kind: IC50 (nM)
Write down the numeric answer in nM and omit the unit.

[in] Please look up its IC50: CCN1CCOc2nc(N3CCOCC3)nc(-c3ccc(NC(=O)OC)cc3)c2C1=O [Compound A]
[out] 710
